- Tested on: Staphylococcus aureus
- EXPERIMENT NOTES: Antibacterial activity against vancomycin-intermediate Staphylococcus aureus Mu50 after 24 hrs by microdilution method
- Assay type: functional
- SETTINGS: Mu50, 24 h
Binary label based on MIC with cut-off 4 µg/mL: below gives fulfilled, not below gives not fulfilled.

The following compounds have reported results that may help.
CC(=O)OC[C@H]1O[C@@H](Oc2cc(O)c3c(=O)c(O[C@@H]4O[C@H](COC(C)=O)[C@H](OC(C)=O)[C@H](OC(C)=O)[C@H]4OC(C)=O)c(-c4ccc(O)c(O)c4)oc3c2)[C@H](OC(C)=O)[C@@H](OC(C)=O)[C@H]1OC(C)=O; not fulfilled
CCOc1ccc(CCC(=O)O[C@H]2[C@H](Oc3c(-c4ccc(O)c(O)c4)oc4cc(O)cc(O)c4c3=O)O[C@H](CO)[C@@H](O)[C@@H]2OC(=O)CCc2ccc(OCC)cc2)cc1; fulfilled
CCOc1ccc(CCC(=O)OC[C@H]2O[C@@H](Oc3c(-c4ccc(O)c(O)c4)oc4cc(O)cc(O)c4c3=O)[C@H](OC(=O)CCc3ccc(OCC)cc3)[C@@H](O)[C@H]2O)cc1; not fulfilled
O=C(OC[C@H]1O[C@@H](Oc2c(-c3ccc(O)c(O)c3)oc3cc(O)cc(O)c3c2=O)[C@H](OC(=O)c2ccc(F)cc2)[C@@H](O)[C@H]1O)c1ccc(F)cc1; fulfilled
CN[C@H](CC(C)C)C(=O)N[C@H]1C(=O)N[C@@H](CC(N)=O)C(=O)N[C@H]2C(=O)N[C@H]3C(=O)N[C@H](C(=O)N[C@H](C(=O)O)c4cc(O)cc(O)c4-c4cc3ccc4O)[C@H](O)c3ccc(c(Cl)c3)Oc3cc2cc(c3O[C@@H]2O[C@H](CO)[C@@H](O)[C@H](O)[C@H]2O[C@H]2C[C@](C)(N)[C@H](O)[C@H](C)O2)Oc2ccc(cc2Cl)[C@H]1O; not fulfilled
Cc1ccc(CCC(=O)OC[C@H]2O[C@@H](Oc3c(-c4ccc(O)c(O)c4)oc4cc(O)cc(O)c4c3=O)[C@H](OC(=O)CCc3ccc(C)cc3)[C@@H](O)[C@H]2O)cc1; fulfilled
O=C(CCc1ccc(O)cc1)O[C@H]1[C@H](Oc2c(-c3ccc(O)c(O)c3)oc3cc(O)cc(O)c3c2=O)O[C@H](CO)[C@@H](O)[C@@H]1OC(=O)CCc1ccc(O)cc1; fulfilled
CO[C@@H]1[C@@H](OC(N)=O)[C@@H](O)[C@H](Oc2ccc3c(O)c(NC(=O)c4ccc(O)c(CC=C(C)C)c4)c(=O)oc3c2C)OC1(C)C; not fulfilled

Problem: Below 4 µg/mL on MIC? Entry "O=C(CCCCc1ccc(F)cc1)OC[C@H]1O[C@@H](Oc2c(-c3ccc(O)c(O)c3)oc3cc(O)cc(O)c3c2=O)[C@H](OC(=O)CCCCc2ccc(F)cc2)[C@@H](O)[C@H]1O"
Result: not fulfilled

Problem: Would you kindly verify if MIC of "Cc1ccc(CCC(=O)O[C@H]2[C@H](Oc3c(-c4ccc(O)c(O)c4)oc4cc(O)cc(O)c4c3=O)O[C@H](CO)[C@@H](O)[C@@H]2OC(=O)CCc2ccc(C)cc2)cc1" is strictly less than 4 µg/mL?
Result: fulfilled

Problem: Bench note: check whether "O=C(CCc1ccc(F)cc1)OC[C@H]1O[C@@H](Oc2c(-c3ccc(O)c(O)c3)oc3cc(O)cc(O)c3c2=O)[C@H](O)[C@@H](O)[C@H]1O" shows MIC below 4 µg/mL
Result: not fulfilled

----------
- Tested on: Escherichia coli
- EXPERIMENT NOTES: Antibacterial activity against Escherichia coli K-12 after 24 hrs by microdilution method
- Format: functional
- SETTINGS: K-12, 24 h
REPORTED ENDPOINT: MIC (µg/mL)
Number only, in µg/mL; omit the unit.

Problem: Lab note: need MIC for "O=c1c(O[C@@H]2O[C@H](CO)[C@H](O)[C@H](O)[C@H]2O)c(-c2ccc(O)c(O)c2)oc2cc(O[C@@H]3O[C@H](CO)[C@H](O)[C@H](O)[C@H]3O)cc(O)c12" on Escherichia coli, anyone have it?
Result: 32

Problem: Give MIC (Escherichia coli) of the following compound: O=c1c(O)c(-c2ccc(O)c(O)c2)oc2cc(O)cc(O)c12 [QUERCETIN]
Result: 64

----------
- Test system: Staphylococcus aureus
- EXPERIMENT NOTES: Antibacterial activity against methicillin-resistant Staphylococcus aureus OM481 after 24 hrs by microdilution method
- Format: functional
- SETTINGS: OM481, 24 h
REPORTED ENDPOINT: MIC (µg/mL)
Unit µg/mL implied. Number only.

O=C(CCc1ccc(F)cc1)O[C@H]1[C@H](Oc2c(-c3ccc(O)c(O)c3)oc3cc(O)cc(O)c3c2=O)O[C@H](CO)[C@@H](O)[C@@H]1OC(=O)CCc1ccc(F)cc1; 2
CCOc1ccc(CCC(=O)O[C@H]2[C@H](Oc3c(-c4ccc(O)c(O)c4)oc4cc(O)cc(O)c4c3=O)O[C@H](CO)[C@@H](O)[C@@H]2OC(=O)CCc2ccc(OCC)cc2)cc1; 2
O=C(CCc1ccc(F)cc1)OC[C@H]1O[C@@H](Oc2c(-c3ccc(O)c(O)c3)oc3cc(O)cc(O)c3c2=O)[C@H](OC(=O)CCc2ccc(F)cc2)[C@@H](O)[C@H]1O; 0.13

Problem: Given the compound "CC(=O)OC[C@H]1O[C@@H](Oc2cc(O)c3c(=O)c(O[C@@H]4O[C@H](COC(C)=O)[C@H](OC(C)=O)[C@H](OC(C)=O)[C@H]4OC(C)=O)c(-c4ccc(O)c(O)c4)oc3c2)[C@H](OC(C)=O)[C@@H](OC(C)=O)[C@H]1OC(C)=O" , what is its reported MIC?
Result: 128

Problem: What MIC value was documented for this compound, CC1O[C@H](Oc2c(-c3ccc(O)cc3)oc3cc(O)cc(O)c3c2=O)[C@@H](OC(=O)/C=C/c2ccc(O)cc2)[C@@H](O)[C@@H]1OC(=O)/C=C/c1ccc(O)cc1 (stereo not given in full) ?
Result: 1

----------
- Test system: Enterococcus
- EXPERIMENT NOTES: Antibacterial activity against vancomycin resistant Enterococcus NCTC 12201 after 24 hrs by microdilution method
- Assay type: functional
- SETTINGS: NCTC 12201, 24 h
Here the recorded MIC is given for each entry.
All answers are understood in µg/mL, so give the number only.

// below: answered molecules
O=C(CCc1ccc(F)cc1)Oc1cc(O)c2c(=O)c(OC(=O)CCc3ccc(F)cc3)c(-c3ccc(O)c(O)c3)oc2c1; 32
O=C(Cc1ccc(F)cc1)O[C@H]1[C@H](Oc2c(-c3ccc(O)c(O)c3)oc3cc(O)cc(O)c3c2=O)O[C@H](CO)[C@@H](O)[C@@H]1OC(=O)Cc1ccc(F)cc1; 4
CC(=O)OC[C@H]1O[C@@H](Oc2c(-c3ccc(O)c(O)c3)oc3cc(O)cc(O)c3c2=O)[C@H](OC(C)=O)[C@@H](OC(C)=O)[C@H]1OC(C)=O; 32
O=C(CCCCc1ccc(F)cc1)OC[C@H]1O[C@@H](Oc2c(-c3ccc(O)c(O)c3)oc3cc(O)cc(O)c3c2=O)[C@H](OC(=O)CCCCc2ccc(F)cc2)[C@@H](O)[C@H]1O; 16
CO[C@@H]1[C@@H](OC(N)=O)[C@@H](O)[C@H](Oc2ccc3c(O)c(NC(=O)c4ccc(O)c(CC=C(C)C)c4)c(=O)oc3c2C)OC1(C)C; 2

Problem: Which MIC is listed for "O=C(CCc1ccc(O)cc1)O[C@H]1[C@H](Oc2c(-c3ccc(O)c(O)c3)oc3cc(O)cc(O)c3c2=O)O[C@H](CO)[C@@H](O)[C@@H]1OC(=O)CCc1ccc(O)cc1" ?
Result: 4

----------
- System: Enterococcus
- EXPERIMENT NOTES: Antibacterial activity against vancomycin resistant Enterococcus NCTC 12201 after 24 hrs by microdilution method
- Type: functional
- SETTINGS: NCTC 12201, 24 h
REPORTED ENDPOINT: MIC

Recorded MIC, per entry:
O=C(CCc1ccc(F)cc1)OC[C@H]1O[C@@H](Oc2c(-c3ccc(O)c(O)c3)oc3cc(O)cc(O)c3c2=O)[C@H](OC(=O)CCc2ccc(F)cc2)[C@@H](O)[C@H]1O; 0.25 µg/mL
O=C(OC[C@H]1O[C@@H](Oc2c(-c3ccc(O)c(O)c3)oc3cc(O)cc(O)c3c2=O)[C@H](OC(=O)c2ccc(F)cc2)[C@@H](O)[C@H]1O)c1ccc(F)cc1; 4 µg/mL
O=C(CCc1ccc(F)cc1)OC[C@H]1O[C@@H](Oc2c(-c3ccc(O)c(O)c3)oc3cc(O)cc(O)c3c2=O)[C@H](O)[C@@H](O)[C@H]1O; 16 µg/mL

Problem: # input compound: "CC(=O)OC[C@H]1O[C@@H](Oc2cc(O)c3c(=O)c(O[C@@H]4O[C@H](COC(C)=O)[C@H](OC(C)=O)[C@H](OC(C)=O)[C@H]4OC(C)=O)c(-c4ccc(O)c(O)c4)oc3c2)[C@H](OC(C)=O)[C@@H](OC(C)=O)[C@H]1OC(C)=O" ; wanted: its MIC
Result: 64 µg/mL

Problem: Fill blank: measured MIC of the compound "CCn1cc(C(=O)O)c(=O)c2cc(F)c(N3CCNCC3)cc21" is ____.
Result: 4 µg/mL

Problem: Report MIC for "O=c1c(O)c(-c2ccc(O)c(O)c2)oc2cc(O)cc(O)c12" please.
Result: > 128 µg/mL

Problem: MIC lookup needed for "Cc1ccc(CC(=O)OC[C@H]2O[C@@H](Oc3c(-c4ccc(O)c(O)c4)oc4cc(O)cc(O)c4c3=O)[C@H](OC(=O)Cc3ccc(C)cc3)[C@@H](O)[C@H]2O)cc1" , thanks.
Result: 4 µg/mL

Sourced from ChEMBL document CHEMBL1795235
